pIC50: −log10 of the molar value.
Observed pIC50 values for Factor D (Homo sapiens) are listed in what follows.

{"columns": ["molecule", "pIC50"],
 "data": [
  ["Cc1cc(-c2ccccc2)cc2c3c(N)ncnc3n(CC(=O)N3[C@H](C(=O)Nc4cccc(Br)n4)C[C@@]4(C)C[C@@H]34)c12 [Compound 230a]", "> 7.00"],
  ["Nc1ncnc2c1c1cc(C(F)(F)F)ccc1n2CC(=O)N1C[C@@H](N)C[C@H]1C(=O)Nc1cccc(Br)n1 [Compound 180e]", "6.00 to 7.00"],
  ["Nc1ccnc2c1ccn2CC(=O)N1[C@@H]2C[C@@H]2C[C@H]1C(=O)Nc1cccc(Br)n1 [Compound 83d]", "6.00 to 7.00"],
  ["Nc1ncnc2c1c1cc(C(F)(F)F)ccc1n2CC(=O)N1[C@@H]2C[C@@H]2C[C@H]1C(=O)Nc1cccc(Br)n1 [Compound 27a]", "> 7.00"],
  ["Nc1ncnc2c1c1cc(Cl)ccc1n2CC(=O)N1[C@@H]2C[C@@H]2C[C@H]1C(=O)Nc1cccc(Br)n1 [Compound 236f]", "> 7.00"]
]}

// switching to the query molecule
(Q) I am curious: what pIC50 value has been reported for CCOC(=O)CCc1ccc2c(c1)c1c(N)ncnc1n2CC(=O)N1[C@H](C(=O)Nc2cccc(Br)n2)C[C@@]2(C)C[C@@H]12 [Compound 190a] ?
(A) > 7.00

====

Observed IC50 values for UniProt:P00746 are listed in what follows.

Some entries whose results are on file:
{"columns": ["compound", "IC50"],
 "data": [
  ["Nc1ncnn2c(CC(=O)N3C[C@H](F)C[C@H]3C(=O)Nc3cccc(Br)n3)ccc12 [Compound 69a]", "100 to 1000 nM"],
  ["COc1cc2c(cc1C)c1c(N)ncnc1n2CC(=O)N1[C@H](C(=O)Nc2cccc(Br)n2)C[C@@]2(C)C[C@@H]12 [Compound 329a]", "< 100 nM"],
  ["Cc1ncc(-c2cc(C)c3c(c2)c2c(N)ncnc2n3CC(=O)N2[C@H](C(=O)Nc3cccc(Br)n3)C[C@@]3(C)C[C@@H]23)cn1 [Compound 309a]", "< 100 nM"]
]}

(Q) Form: Entry = CC1CC(CNC(=O)[C@@H]2C[C@H]3C[C@H]3N2C(=O)Cn2cnc3c(N)ncnc32)C1 (stereo partly shown) [Compound 100b] | System = UniProt:P00746 | IC50 = ____
(A) > 1000 nM

(Q) Form: Entry = Cc1ncc(-c2cc(C)c3c(c2)c2c(N)ncnc2n3CC(=O)N2[C@H](C(=O)Nc3cccc(Cl)n3)C[C@@]3(C)C[C@@H]23)cn1 [Compound 315a] | System = UniProt:P00746 | IC50 = ____
(A) < 100 nM

====

pIC50: −log10 of the molar value.
Observed pIC50 values for Factor D (Homo sapiens) are listed in what follows.

Some entries whose results are on file:
{"columns": ["compound", "pIC50"],
 "data": [
  ["C[C@H]1C[C@@H](C(=O)Nc2cccc(Br)n2)N(C(=O)Cn2c3ccc(C(F)(F)F)cc3c3c(N)ncnc32)C1 [Compound 208d]", "> 7.00"],
  ["COc1ccc2c(c1)c1c(N)ncnc1n2CC(=O)N1[C@H](C(=O)Nc2cccc(Br)n2)C[C@@]2(C)C[C@@H]12 [Compound 159a]", "> 7.00"],
  ["C[C@@]12C[C@@H](C(=O)Nc3cccc(Br)n3)N(C(=O)Cn3c4ncnc(N)c4c4cc(Br)cc(F)c43)[C@@H]1C2 [Compound 377a]", "> 7.00"],
  ["Nc1ncnn2c(CC(=O)N3[C@@H]4C[C@@H]4C[C@H]3C(=O)NCc3cccc(Cl)c3F)ccc12 [Compound 66b]", "6.00 to 7.00"],
  ["C=Cc1ccc2c(c1)c1c(N)ncnc1n2CC(=O)N1[C@@H]2C[C@@H]2C[C@H]1C(=O)Nc1cccc(Br)n1 [Compound 59c]", "> 7.00"]
]}

(Q) Form: Entry = Nc1ncnc2c1cc1n2C(C(=O)N2[C@@H](C(=O)Nc3cccc(Br)n3)C[C@@H]3C[C@@H]32)Oc2ccccc2-1 (single isomer, unassigned) [Compound 293a] | System = Factor D (Homo sapiens) | pIC50 = ____
(A) 6.00 to 7.00

(Q) Form: Entry = Cc1ncc(NC(=O)[C@@H]2C[C@@]3(C)C[C@H]3N2C(=O)Cn2c3ncnc(N)c3c3cc(C(F)(F)F)cc(C)c32)nc1Cl [Compound 364e] | System = Factor D (Homo sapiens) | pIC50 = ____
(A) > 7.00

(Q) Form: Entry = Nc1ncnc2c1c1cc(O)ccc1n2CC(=O)N1[C@@H]2C[C@@H]2C[C@H]1C(=O)Nc1cccc(Br)n1 [Compound 166a] | System = Factor D (Homo sapiens) | pIC50 = ____
(A) > 7.00

(Q) Form: Entry = Nc1ncnc2c1c1cccc(C(F)(F)F)c1n2CC(=O)N1[C@@H]2C[C@@H]2C[C@H]1C(=O)Nc1cccc(Br)n1 [Compound 174g] | System = Factor D (Homo sapiens) | pIC50 = ____
(A) < 6.00

(Q) Form: Entry = COC(=O)c1cccc2c3c(N)ncnc3n(CC(=O)N3[C@@H]4C[C@@H]4C[C@H]3C(=O)Nc3cccc(Br)n3)c12 [Compound 47g] | System = Factor D (Homo sapiens) | pIC50 = ____
(A) > 7.00

(Q) Form: Entry = Nc1ncnc2c1c(C(=O)O)cn2CC(=O)N1C[C@H](F)C[C@H]1C(=O)NCc1cccc(Cl)c1F [Compound 153a] | System = Factor D (Homo sapiens) | pIC50 = ____
(A) < 6.00

(Q) Form: Entry = Cc1ccc2c(n1)c1c(N)ncnc1n2CC(=O)N1[C@@H]2C[C@@H]2C[C@H]1C(=O)Nc1cccc(Br)n1 [Compound 285g] | System = Factor D (Homo sapiens) | pIC50 = ____
(A) > 7.00

(Q) Form: Entry = Nc1ncnc2c1ncn2CC(=O)N1[C@@H]2C[C@@H]2C[C@H]1C(=O)NCc1cccc(Cl)c1F [Compound 91a] | System = Factor D (Homo sapiens) | pIC50 = ____
(A) > 7.00
